subject.of.test: T1, mouse IL-12Rβ2 (mouse, UniProt P97378 24-874)
T1 construct: Expressed on HEK293T cells transiently transfected with a pcDNA3 plasmid (Genscript clone OMu01776); also called mIL-12RB2; NP_032380.1
T1 sequence: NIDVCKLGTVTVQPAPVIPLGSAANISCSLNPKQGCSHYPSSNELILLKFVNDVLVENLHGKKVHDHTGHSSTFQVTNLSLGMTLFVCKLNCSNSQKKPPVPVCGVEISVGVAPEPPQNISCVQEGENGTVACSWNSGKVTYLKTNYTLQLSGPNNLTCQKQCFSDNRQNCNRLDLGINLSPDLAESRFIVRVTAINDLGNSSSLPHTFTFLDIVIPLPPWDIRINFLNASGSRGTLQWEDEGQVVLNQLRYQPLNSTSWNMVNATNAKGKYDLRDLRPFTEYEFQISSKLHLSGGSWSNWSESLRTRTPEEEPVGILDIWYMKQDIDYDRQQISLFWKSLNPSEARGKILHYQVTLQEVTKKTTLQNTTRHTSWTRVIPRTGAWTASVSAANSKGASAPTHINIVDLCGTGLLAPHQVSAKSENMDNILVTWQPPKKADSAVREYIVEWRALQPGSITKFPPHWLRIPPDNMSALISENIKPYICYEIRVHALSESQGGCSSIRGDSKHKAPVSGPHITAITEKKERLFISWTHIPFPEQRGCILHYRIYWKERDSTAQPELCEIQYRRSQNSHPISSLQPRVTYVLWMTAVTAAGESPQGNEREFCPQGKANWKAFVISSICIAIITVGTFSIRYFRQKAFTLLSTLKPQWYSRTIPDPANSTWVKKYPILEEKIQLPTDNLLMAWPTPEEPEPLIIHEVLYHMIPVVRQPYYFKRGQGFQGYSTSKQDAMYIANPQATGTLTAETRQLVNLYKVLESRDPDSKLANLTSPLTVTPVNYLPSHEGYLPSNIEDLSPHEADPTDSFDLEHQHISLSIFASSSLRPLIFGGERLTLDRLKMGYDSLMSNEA
assay.text: flow cytometry, P.E. on transfected HEK293T cells
value.type: % cells bound (%)
// note: answer is a bare numeric in %

>>> quantitative_result("anti-IL-12Rβ2 VHH clone 3CRHM20 (VHH, not shown: small tags and cut ends, periplasmic extract; also called 21055) VHH: QVQLQESGGGLVQAGGSLRLSCAASGRTFSKSTMGWFRQTPGKEREFVAAITWTDTEVYANSVKDRFTISRDNAKNTFYLQMHSLKLEDTAVYYCAGDRYGSSRDSVFSSPTNYPYWGQGTQVTVSS")
0.18

Now for a further binder.
Challenge: Requested read-out: % cells bound. Entry: anti-IL-12Rβ2 VHH clone 3CRHM240 (VHH, not shown: small tags and cut ends, periplasmic extract; also called 21065) VHH: QVQLQESGGGSVQAGGSLRLSCAVSGRTVSDYAMGWFRQAPGKEREFVVAMSSSETTVYTNSVKGRITISRDNAKNAVYLQMNALKPEDTAVYYCSMGPITTFQGLARQNEYHYWGQGTQVTVSS
Response given: 0.33

meta.source: patent US20260209362A1
